Origin of the recorded values: PubChem BioAssay (NCI)

Field: TGI. Provide a value for each of the compounds that follow.
System: HCC-2998 colon
Assay: NCI tumour cell line growth inhibition, 48 h

Lab entry: HCC-2998 colon assay, compound `O=C(Cc1ccc(F)c(Cl)c1)Nc1cc(C2(C(F)(F)F)CC2)nn1CC1CCCCC1` , TGI = > 15 µM

C=CCCCCC1CCC2CCC(CCCCC=C)N12 (stereo unspecified) on HCC-2998 colon gives TGI = 30 µM

The compound `C=CCn1c(=O)c(C(=O)Nc2nc(C34CC5CC(CC(C5)C3)C4)cs2)c(O)c2ccccc21` , when measured on HCC-2998 colon, yielded TGI of > 100 µM

Lab note: compound `O=C(c1ccco1)c1c(C(F)(F)F)nc2ccc(Cl)cc2[n+]1[O-]` tested on HCC-2998 colon; recorded TGI was 46.1 µM

Summary: `Oc1cc(Cl)cc2cccnc12` , HCC-2998 colon, TGI = > 70 µM

Let me check: `Nc1ncn([C@@H]2O[C@H](CO)[C@@H](O)[C@H]2O)c(=O)n1` , system HCC-2998 colon, measured TGI is 5.55 µM

Tested on HCC-2998 colon, the item `C/C(C[n+]1ccccc1)=N\N=C(N)N` showed TGI equal to > 100 µM

Item CC(O)CNC(=O)C(C)Oc1ccc(OCC2CCCCC2)cc1 (stereo unspecified) was tested on HCC-2998 colon; the reported TGI is > 100 µM

HCC-2998 colon assay, compound `CCC(C)(C)c1ccc(OCCCCNC(=O)c2ccc3ccccc3c2O)c(C(C)(C)CC)c1` , recorded TGI = > 100 µM

HCC-2998 colon assay, compound `O=C1NC(N2CCOCC2)=N/C1=C\c1ccco1` , recorded TGI = > 100 µM

# value of TGI, HCC-2998 colon, item CC(=O)NC1C(OCc2ccccc2)OC(CO)C(O)C1OCC(=O)N[C@@H](C)C(=O)N[C@H](CCC(=O)NCCCNc1c2ccccc2nc2cccc([N+](=O)[O-])c12)C(N)=O (stereo partly specified) = 0.0301 µM

###

Tested on: PC-3 prostate
Assay: NCI tumour cell line growth inhibition, 48 h
property.label: TGI

The reported value for O=C1NC2c3c(I)sc(I)c3C(O)C2O1 (stereo not given) in terms of TGI is > 100 µM

Record summary for `CCN(CC)CCNc1nc(N)c(C#N)c(C#N)c1C#N` : reported TGI = > 10 µM

// `CCNC(=S)NNC(=O)C12CC3CC(CC(C3)C1)C2` : TGI value = > 100 µM

The reported TGI of the compound CC(c1ccccc1)N1CCN(C(C)c2ccccc2)CC1 (stereo not given) was > 100 µM

Briefly, TGI measured for `S=c1[nH]c(=S)c2cc3ccccc3nc2[nH]1` : > 100 µM

Briefly, TGI measured for `CCC[CH2][Sn]([CH2]CCC)([O]C(=O)c1ccc(OC)c(OC)c1OC)[O][Sn]([CH2]CCC)([CH2]CCC)[O]C(=O)c1ccc(OC)c(OC)c1OC` : 2.46 µM

Value of measured TGI for the entry COc1cc(O)c2c(c1)C(=O)c1cc3c(c(O)c1C2=O)C(OC1OC(C)C(OC)C(O)C1OC)C(OC)C(C)(O)C3=O (stereo not given) : 14.1 µM

Value of TGI reported for the compound `COc1ccc(-c2nnc3n(C)c(=O)c4ccccc4n23)cc1N` is > 100 µM

The reported value for `COC1=CC(=O)c2c(c(-c3nc(C)cs3)cn2C)C1=O` in terms of TGI is > 55.4 µM

get_value(item= BrC(=C(c1ccc(OC2CCCCO2)cc1)c1ccc(OC2CCCCO2)cc1)c1ccccc1 (stereo not given) , readout=TGI) returns > 100 µM
